target desc: Cin5 (UniProt P40917)
Sequence: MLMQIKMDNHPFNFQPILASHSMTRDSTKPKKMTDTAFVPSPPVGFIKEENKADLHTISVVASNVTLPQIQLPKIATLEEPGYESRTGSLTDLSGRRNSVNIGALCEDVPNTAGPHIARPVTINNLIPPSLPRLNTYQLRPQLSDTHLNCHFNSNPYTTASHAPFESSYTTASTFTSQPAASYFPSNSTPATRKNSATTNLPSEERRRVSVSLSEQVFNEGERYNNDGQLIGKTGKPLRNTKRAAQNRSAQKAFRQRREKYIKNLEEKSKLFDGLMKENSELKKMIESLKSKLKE
experiment description: PBM E-score (8-mer binding enrichment) (E-score (-0.5 to 0.5)); higher = stronger / more preferred TF binding
experimental setup: protein concentration: 100 nM; construct: GST-full length
In all, about 33,000 sequences were measured (“E-score (-0.5 to 0.5)”: median about -0.0059, highest 2% from about 0.26 on). This is one part of a sample in which the highest values are shown more often than they occur.
Items are presented alongside their recorded PBM E-score.
Lab note: jot down the number only; don't add units.

Task: I'd like to know its PBM E-score. The sequence in question is CCCACAGC
Result: -0.192

Task: I'd like to know its PBM E-score. The sequence in question is GCCTTACA
Result: -0.253

Task: I'd like to know its PBM E-score. The sequence in question is AAGAGCCG
Result: -0.187

Further cases:
Task: I'd like to know its PBM E-score. The sequence in question is GGACCTAA
Result: -0.0416

Task: I'd like to know its PBM E-score. The sequence in question is ATCTTACG
Result: 0.164

Task: I'd like to know its PBM E-score. The sequence in question is AAATGTAG
Result: 0.101

Task: I'd like to know its PBM E-score. The sequence in question is GGCTTACC
Result: 0.169

Task: I'd like to know its PBM E-score. The sequence in question is ATTTCCTC
Result: 0.09

Task: I'd like to know its PBM E-score. The sequence in question is AGCTGATG
Result: 0.14

Task: I'd like to know its PBM E-score. The sequence in question is TAATGGAA
Result: 0.281

Task: I'd like to know its PBM E-score. The sequence in question is AAGGCACC
Result: -0.0903

Task: I'd like to know its PBM E-score. The sequence in question is GTAAAAGA
Result: 0.0603

Task: I'd like to know its PBM E-score. The sequence in question is GAATGTAA
Result: 0.241

---

target desc: Cin5 (UniProt P40917)
Sequence: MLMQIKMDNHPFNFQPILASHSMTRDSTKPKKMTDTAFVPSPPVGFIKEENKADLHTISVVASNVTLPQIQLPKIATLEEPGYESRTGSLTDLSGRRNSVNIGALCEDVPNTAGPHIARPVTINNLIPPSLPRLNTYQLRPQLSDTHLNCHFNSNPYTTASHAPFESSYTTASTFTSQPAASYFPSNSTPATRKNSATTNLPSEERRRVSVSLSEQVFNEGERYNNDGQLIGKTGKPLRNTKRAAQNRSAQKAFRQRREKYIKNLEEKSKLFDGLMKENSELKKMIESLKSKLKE
experiment description: PBM E-score (8-mer binding enrichment) (E-score (-0.5 to 0.5)); higher = stronger / more preferred TF binding
experimental setup: protein concentration: 100 nM; construct: GST-full length
Over roughly 33,000 sequences, “E-score (-0.5 to 0.5)” has its median near -0.0059; the highest 2% begin near 0.26. The full list was thinned out, with the highest values kept by preference.
measure: PBM E-score
Lab note: jot down the number only; don't add units.

Task: I'd like to know its PBM E-score. The sequence in question is TAAGCTGA
Result: 0.267

Task: I'd like to know its PBM E-score. The sequence in question is GCCTATTA
Result: 0.177

Task: I'd like to know its PBM E-score. The sequence in question is CTTAGGTA
Result: 0.337

Task: I'd like to know its PBM E-score. The sequence in question is GGTAATGA
Result: 0.153

Task: I'd like to know its PBM E-score. The sequence in question is AGCACGAT
Result: 0.0861

Further cases:
Task: I'd like to know its PBM E-score. The sequence in question is AGTAATCG
Result: 0.262

Task: I'd like to know its PBM E-score. The sequence in question is AGTAATCC
Result: 0.243

Task: I'd like to know its PBM E-score. The sequence in question is AAAGCTGA
Result: -0.056

---

target desc: Cin5 (UniProt P40917)
Sequence: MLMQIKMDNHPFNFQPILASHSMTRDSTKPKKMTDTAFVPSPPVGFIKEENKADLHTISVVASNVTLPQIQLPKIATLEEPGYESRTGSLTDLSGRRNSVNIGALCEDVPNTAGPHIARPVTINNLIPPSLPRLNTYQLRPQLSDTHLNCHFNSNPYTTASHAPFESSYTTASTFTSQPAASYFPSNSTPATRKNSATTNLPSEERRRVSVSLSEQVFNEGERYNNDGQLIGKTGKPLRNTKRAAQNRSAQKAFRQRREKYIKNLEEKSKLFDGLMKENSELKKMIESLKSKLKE
experiment description: PBM E-score (8-mer binding enrichment) (E-score (-0.5 to 0.5)); higher = stronger / more preferred TF binding
experimental setup: protein concentration: 100 nM; construct: GST-full length
Over roughly 33,000 sequences, “E-score (-0.5 to 0.5)” has its median near -0.0059; the highest 2% begin near 0.26. Only a selection was taken, and the highest values are over-represented in it overall.
measure: PBM E-score

Below, each entry is followed by its recorded PBM E-score result.
Task: I'd like to know its PBM E-score. The sequence in question is AATAAGCA
Result: 0.176

Task: I'd like to know its PBM E-score. The sequence in question is GTGATAAC
Result: 0.125

Task: I'd like to know its PBM E-score. The sequence in question is GCCACGCC
Result: -0.127

Task: I'd like to know its PBM E-score. The sequence in question is ACTCAGAC
Result: -0.0116

Task: I'd like to know its PBM E-score. The sequence in question is TATAACAA
Result: 0.295

Further cases:
Task: I'd like to know its PBM E-score. The sequence in question is CCTTGAGC
Result: -0.155

Task: I'd like to know its PBM E-score. The sequence in question is CCCGCGCG
Result: 0.138

Task: I'd like to know its PBM E-score. The sequence in question is CTAAAGTA
Result: -0.0582

---

target desc: Cin5 (UniProt P40917)
Sequence: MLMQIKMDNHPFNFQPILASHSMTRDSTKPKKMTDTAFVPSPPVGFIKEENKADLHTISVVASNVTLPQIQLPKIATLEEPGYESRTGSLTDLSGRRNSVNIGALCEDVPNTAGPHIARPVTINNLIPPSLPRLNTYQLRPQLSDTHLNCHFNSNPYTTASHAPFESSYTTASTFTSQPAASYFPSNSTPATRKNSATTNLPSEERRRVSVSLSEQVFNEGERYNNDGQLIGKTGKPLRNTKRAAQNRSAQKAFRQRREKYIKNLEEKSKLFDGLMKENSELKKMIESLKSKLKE
experiment description: PBM E-score (8-mer binding enrichment) (E-score (-0.5 to 0.5)); higher = stronger / more preferred TF binding
experimental setup: protein concentration: 100 nM; construct: GST-full length
Whole data set: some 33,000 sequences, median “E-score (-0.5 to 0.5)” near -0.0059, cut for the highest 2% near 0.26. What follows is part of a selection rich in the highest values, with near analogues and random picks from the rest.
measure: PBM E-score
Lab note: jot down the number only; don't add units.

Below, each entry is followed by its recorded PBM E-score result.
Task: Can you look up PBM E-score on Cin5 (UniProt P40917) for ACGAAGAT ?
Result: 0.116

Task: Can you look up PBM E-score on Cin5 (UniProt P40917) for GAATATAC ?
Result: 0.195

Further cases:
Task: Can you look up PBM E-score on Cin5 (UniProt P40917) for GAGTCGAC ?
Result: 0.063

Task: Can you look up PBM E-score on Cin5 (UniProt P40917) for ACCGTACA ?
Result: -0.108

Task: Can you look up PBM E-score on Cin5 (UniProt P40917) for AATTCTCA ?
Result: 0.0439

Task: Can you look up PBM E-score on Cin5 (UniProt P40917) for TCGAAGAA ?
Result: 0.014

Task: Can you look up PBM E-score on Cin5 (UniProt P40917) for GATATGGA ?
Result: 0.244

Task: Can you look up PBM E-score on Cin5 (UniProt P40917) for TAATATTA ?
Result: 0.368

Task: Can you look up PBM E-score on Cin5 (UniProt P40917) for CAATATTC ?
Result: 0.102
